Assay target: Factor X (FX), P00742
Sequence (P00742 whole entry, looked up): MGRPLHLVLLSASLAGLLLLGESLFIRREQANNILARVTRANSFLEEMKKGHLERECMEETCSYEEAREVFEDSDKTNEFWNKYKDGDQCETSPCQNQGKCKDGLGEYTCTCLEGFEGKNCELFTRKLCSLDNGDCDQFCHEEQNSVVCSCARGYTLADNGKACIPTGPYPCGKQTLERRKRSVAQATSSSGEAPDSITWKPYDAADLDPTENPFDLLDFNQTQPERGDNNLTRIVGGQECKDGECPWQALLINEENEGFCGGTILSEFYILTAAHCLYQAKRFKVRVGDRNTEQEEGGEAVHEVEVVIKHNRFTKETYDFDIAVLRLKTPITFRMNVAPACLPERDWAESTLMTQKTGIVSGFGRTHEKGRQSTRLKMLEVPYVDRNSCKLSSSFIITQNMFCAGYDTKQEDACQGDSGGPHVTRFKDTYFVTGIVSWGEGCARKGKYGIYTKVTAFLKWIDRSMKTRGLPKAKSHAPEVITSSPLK
Readings of KM (FX activation by FIXa in the Xase complex with FVIIIa, PC/PS vesicles and Ca2+) for the listed proteins
Measured quantity: KM (FX activation by FIXa in the Xase complex with FVIIIa, PC/PS vesicles and Ca2+) (µM)

{"Protein": "FIXa Y155F/K228N/R318Y/R338E/R403E/E410N (protein) chain 1: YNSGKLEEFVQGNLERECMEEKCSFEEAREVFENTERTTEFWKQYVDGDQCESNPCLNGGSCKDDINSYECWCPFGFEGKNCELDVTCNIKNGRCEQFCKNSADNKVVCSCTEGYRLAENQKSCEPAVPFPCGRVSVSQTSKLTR chain 2: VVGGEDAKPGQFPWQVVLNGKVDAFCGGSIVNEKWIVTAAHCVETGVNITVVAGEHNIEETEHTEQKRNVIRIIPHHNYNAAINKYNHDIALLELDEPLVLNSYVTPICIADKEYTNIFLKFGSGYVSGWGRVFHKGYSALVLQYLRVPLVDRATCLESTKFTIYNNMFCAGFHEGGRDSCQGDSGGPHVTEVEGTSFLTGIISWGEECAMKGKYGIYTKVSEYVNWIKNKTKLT", "Observed result": 0.0408}
{"Protein": "FIXa Y259F/K265T/Y345T (protein) chain 1: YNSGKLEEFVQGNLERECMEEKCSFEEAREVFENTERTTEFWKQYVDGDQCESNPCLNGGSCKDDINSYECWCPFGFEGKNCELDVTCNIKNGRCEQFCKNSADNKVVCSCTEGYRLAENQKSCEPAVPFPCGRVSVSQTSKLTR chain 2: VVGGEDAKPGQFPWQVVLNGKVDAFCGGSIVNEKWIVTAAHCVETGVKITVVAGEHNIEETEHTEQKRNVIRIIPHHNFNAAINTYNHDIALLELDEPLVLNSYVTPICIADKEYTNIFLKFGSGYVSGWGRVFHKGRSALVLQYLRVPLVDRATCLRSTKFTITNNMFCAGFHEGGRDSCQGDSGGPHVTEVEGTSFLTGIISWGEECAMKGKYGIYTKVSRYVNWIKEKTKLT", "Observed result": 0.0309}
{"Protein": "FIXa D104N/K106S/Y155F/K228N/K247N/N249S (protein) chain 1: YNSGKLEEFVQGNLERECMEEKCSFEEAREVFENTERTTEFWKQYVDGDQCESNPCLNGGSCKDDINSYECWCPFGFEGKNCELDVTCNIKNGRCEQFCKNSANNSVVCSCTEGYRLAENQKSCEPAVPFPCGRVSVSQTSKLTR chain 2: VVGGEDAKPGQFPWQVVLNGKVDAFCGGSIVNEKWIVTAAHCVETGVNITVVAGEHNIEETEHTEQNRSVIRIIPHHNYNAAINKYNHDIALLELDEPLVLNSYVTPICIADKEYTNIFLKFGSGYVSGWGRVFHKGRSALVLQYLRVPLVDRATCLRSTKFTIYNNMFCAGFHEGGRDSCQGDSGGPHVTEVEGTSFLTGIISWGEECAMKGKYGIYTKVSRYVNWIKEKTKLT", "Observed result": 0.0753}
